Structures can show the parent of a compound that is named as a salt.
Measurement Name: melting point

Challenge: May I ask what melting point has been recorded for O=C(N[C@@H](Cc1ccc(OCc2ccccc2)cc1)C(=O)O)c1cn2cc(-c3ccncc3)ccc2n1 [Example E21] ?
Response given: 268 °C

Challenge: May I ask what melting point has been recorded for N[C@H](Cc1c[nH]c2ccccc12)C(=O)NC1(C(=O)O)Cc2ccc(-c3ccc(Cl)cc3)cc2C1 (stereo partly shown) (as salt: hydrochloride) [Example B122] ?
Response given: 168 to 170 °C

Challenge: May I ask what melting point has been recorded for O=C(N[C@@H](Cc1ccc(OCc2ccc(Cl)cc2)cc1)C(=O)O)c1cn2ccc(-c3ccc(Cl)cc3)cc2n1 [Example E63] ?
Response given: 261 °C

Source of measurements: patent US20100130737A1
